- SETTINGS: 298.15 K; 101.33 kPa; Liquid; Vibrating tube method
± gives the expanded uncertainty stated by the source.
Collected mass density values appear next to each entry.

>>> print(df.to_string())
             smiles  observed_measurement
0   COCCOCCOCCOCCOC   1006.2 ± 0.24 kg/m3
1  CCCCCCCCCCCCCCCC   770.01 ± 0.24 kg/m3
2      COCCOCCOCCOC   980.42 ± 0.23 kg/m3

Attention now shifts to the item below.
In: Bench note: what mass density did `CCO` show?
Out: 785.04 ± 0.13 kg/m3
